Assay: Solubility of finasteride in Unistab S-69 (dosing by HPLC)
Assay type: physicochemical
Conditions: Unistab S-69 (commercial mixture of farnesol and linalool), oil or lipid
Measurement kind: solubility

Q: Tell me its solubility given CC(C)(C)NC(=O)[C@H]1CC[C@H]2[C@@H]3CC[C@H]4NC(=O)C=C[C@]4(C)[C@H]3CC[C@]12C [finasteride] as the entry.
Ans: ~90 mg/mL

Source: patent US9895302B2
